The reported numbers originate from patent US7311918B2.

System: EDIM virus (murine rotavirus)
Type: in vivo, BALB/c mice
stated conditions: mouse, in vivo
// NB: equality with 100 counts as NO; only Shedding per mouse per day strictly below is YES

Solved cases (4 shown):
>>> group_label("Peptide 3: one of 11 overlapping synthetic peptides (18 to 31 amino acids) of the CD region of VP6, Table 10 (FSFPRVINSADGATTWYFNPVILRPNNVEV; Rotavirus VP6 fragment)")
"YES"
>>> group_label("Peptide 7: one of 11 overlapping synthetic peptides (18 to 31 amino acids) of the CD region of VP6, Table 10 (MTPAVTALFPNAQPFEHHATVGLTLRIDSA; Rotavirus VP6 fragment)")
"NO"
>>> group_label("Peptide 5: one of 11 overlapping synthetic peptides (18 to 31 amino acids) of the CD region of VP6, Table 10 (NGQVINTYQARFGTIVARNFDTIRLSFQLM; Rotavirus VP6 fragment)")
"NO"
>>> group_label("Peptide 10: one of 11 overlapping synthetic peptides (18 to 31 amino acids) of the CD region of VP6, Table 10 (QEYAIPVGPVFPPGMNWTDLITNYSPSRED; Rotavirus VP6 fragment)")
"NO"

Q: API: query returns whether the substance falls strictly under 100 in Shedding per mouse per day. Query: Peptide 6: 25 mer synthetic peptide of the CD region of VP6 containing the 14-amino acid sequence RLSFQLMRPPNMTP, Table 10 (RNFDTIRLSFQLMRPPNMTPAVTAL; Rotavirus VP6 fragment)
A: YES

Q: API: query returns whether the substance falls strictly under 100 in Shedding per mouse per day. Query: Peptide 9: one of 11 overlapping synthetic peptides (18 to 31 amino acids) of the CD region of VP6, Table 10 (VLADASETMLANVTSVRQEYAI; Rotavirus VP6 fragment)
A: NO

Q: API: query returns whether the substance falls strictly under 100 in Shedding per mouse per day. Query: Peptide 11: one of 11 overlapping synthetic peptides (18 to 31 amino acids) of the CD region of VP6, Table 10 (TDLITNYSPSREDNLQRVFTVASIRSMLVK; Rotavirus VP6 fragment)
A: YES
